target: Epidermal growth factor receptor (Homo sapiens, UniProt P00533); test: Inhibition of EGFR phosphorylation in human A431 cells after 10 mins by FLISA
Sequence (P00533 whole entry): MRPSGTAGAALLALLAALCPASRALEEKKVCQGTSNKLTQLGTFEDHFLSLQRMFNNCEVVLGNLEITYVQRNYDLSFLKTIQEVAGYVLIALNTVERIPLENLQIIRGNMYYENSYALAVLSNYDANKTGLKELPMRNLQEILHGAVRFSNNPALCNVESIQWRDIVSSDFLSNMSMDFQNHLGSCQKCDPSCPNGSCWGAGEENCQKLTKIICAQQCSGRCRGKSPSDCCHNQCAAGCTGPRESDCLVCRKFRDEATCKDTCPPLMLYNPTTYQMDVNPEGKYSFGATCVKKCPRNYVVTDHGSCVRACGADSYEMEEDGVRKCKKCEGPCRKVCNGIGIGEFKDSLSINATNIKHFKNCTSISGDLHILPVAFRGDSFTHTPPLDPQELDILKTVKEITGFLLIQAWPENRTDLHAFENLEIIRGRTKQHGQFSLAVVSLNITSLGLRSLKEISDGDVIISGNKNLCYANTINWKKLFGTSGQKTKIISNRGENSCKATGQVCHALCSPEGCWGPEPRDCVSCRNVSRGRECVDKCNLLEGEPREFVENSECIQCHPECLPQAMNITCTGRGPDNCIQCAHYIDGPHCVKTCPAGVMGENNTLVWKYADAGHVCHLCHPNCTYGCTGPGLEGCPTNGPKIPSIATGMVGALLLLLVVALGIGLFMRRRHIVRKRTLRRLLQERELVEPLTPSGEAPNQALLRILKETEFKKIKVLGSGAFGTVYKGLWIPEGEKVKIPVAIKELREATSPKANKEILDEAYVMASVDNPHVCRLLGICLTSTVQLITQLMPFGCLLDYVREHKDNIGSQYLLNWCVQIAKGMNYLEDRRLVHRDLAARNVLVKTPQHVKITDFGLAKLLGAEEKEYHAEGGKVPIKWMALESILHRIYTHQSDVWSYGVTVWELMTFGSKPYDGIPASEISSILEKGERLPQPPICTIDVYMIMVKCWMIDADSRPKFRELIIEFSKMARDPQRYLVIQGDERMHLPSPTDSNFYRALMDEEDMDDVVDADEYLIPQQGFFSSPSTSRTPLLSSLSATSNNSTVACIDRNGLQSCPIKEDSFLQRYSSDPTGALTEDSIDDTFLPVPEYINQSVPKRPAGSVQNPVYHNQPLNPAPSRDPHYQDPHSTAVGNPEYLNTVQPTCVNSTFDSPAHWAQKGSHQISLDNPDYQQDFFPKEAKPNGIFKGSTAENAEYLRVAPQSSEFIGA
IC50 for assorted compounds

INSERT INTO assay_data (compound_string, metric, recorded_value) VALUES
  ('Cc1ccccc1Cc1cc2c(Nc3cccc(Br)c3)ncnc2[nH]1', 'IC50', '> 300 µM');

Prompt line: Name the reported IC50 value associated with the compound Nc1nc(Nc2ccc(Br)cc2Cl)c2cc(Cc3ccc(Cl)cc3Cl)[nH]c2n1
Response line: > 300 µM

Prompt line: I have this compound here, COc1ccc(OC)c(Cc2cc3c(Nc4cccc(Br)c4)ncnc3[nH]2)c1 , and I need its recorded IC50.
Response line: > 300 µM

Prompt line: Quick check: IC50 of Clc1ccc(Cc2cc3c(Nc4cccc(Br)c4)ncnc3[nH]2)c(Cl)c1 ?
Response line: > 300 µM

Prompt line: Quick check: IC50 of C#Cc1cccc(Nc2ncnc3[nH]c(Cc4ccc(Cl)cc4Cl)cc23)c1 ?
Response line: > 300 µM

====

In this section we review reported IC50 values for a set of molecules.
target: Vascular endothelial growth factor receptor 2 (Homo sapiens, UniProt P35968); experiment: Inhibition of VEGFR2 phosphorylation in human U251 cells after 10 mins by FLISA
Sequence (P35968 whole entry): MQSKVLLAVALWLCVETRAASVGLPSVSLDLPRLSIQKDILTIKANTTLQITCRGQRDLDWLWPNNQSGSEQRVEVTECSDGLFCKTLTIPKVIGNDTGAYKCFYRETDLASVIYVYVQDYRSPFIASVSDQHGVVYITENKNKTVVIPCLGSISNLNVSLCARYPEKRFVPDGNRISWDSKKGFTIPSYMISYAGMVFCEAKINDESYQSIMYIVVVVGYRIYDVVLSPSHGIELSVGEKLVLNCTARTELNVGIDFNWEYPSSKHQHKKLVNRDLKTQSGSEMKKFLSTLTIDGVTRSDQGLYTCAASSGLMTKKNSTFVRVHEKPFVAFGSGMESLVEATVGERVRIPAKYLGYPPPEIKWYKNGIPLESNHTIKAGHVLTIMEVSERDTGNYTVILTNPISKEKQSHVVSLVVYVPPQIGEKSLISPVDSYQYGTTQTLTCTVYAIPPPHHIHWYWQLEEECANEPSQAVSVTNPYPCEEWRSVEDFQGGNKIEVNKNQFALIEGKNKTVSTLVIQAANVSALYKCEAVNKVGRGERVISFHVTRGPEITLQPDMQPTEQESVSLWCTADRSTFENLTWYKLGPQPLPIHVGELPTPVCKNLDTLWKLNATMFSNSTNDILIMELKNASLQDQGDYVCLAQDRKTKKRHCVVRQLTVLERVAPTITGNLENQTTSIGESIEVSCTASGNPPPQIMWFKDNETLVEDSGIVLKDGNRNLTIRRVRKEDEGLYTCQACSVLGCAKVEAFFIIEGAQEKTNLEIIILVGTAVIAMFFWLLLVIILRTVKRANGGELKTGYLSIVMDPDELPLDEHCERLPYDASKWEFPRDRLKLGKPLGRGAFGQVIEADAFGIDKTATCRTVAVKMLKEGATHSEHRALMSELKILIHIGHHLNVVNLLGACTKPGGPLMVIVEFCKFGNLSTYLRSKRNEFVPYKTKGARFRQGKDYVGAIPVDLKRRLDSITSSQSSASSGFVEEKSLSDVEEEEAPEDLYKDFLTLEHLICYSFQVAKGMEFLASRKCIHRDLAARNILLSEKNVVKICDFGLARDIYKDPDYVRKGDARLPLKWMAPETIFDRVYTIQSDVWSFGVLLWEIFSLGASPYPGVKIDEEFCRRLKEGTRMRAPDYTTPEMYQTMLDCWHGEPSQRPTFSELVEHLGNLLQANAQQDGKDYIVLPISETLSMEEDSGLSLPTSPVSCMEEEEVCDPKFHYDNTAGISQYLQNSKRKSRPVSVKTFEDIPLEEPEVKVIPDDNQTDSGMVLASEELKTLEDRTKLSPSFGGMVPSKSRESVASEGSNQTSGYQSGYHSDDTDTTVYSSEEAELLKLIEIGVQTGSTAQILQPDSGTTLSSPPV

INSERT INTO measurements (compound_string, recorded_value) VALUES
  ('Clc1ccc(Cc2cc3c(Nc4cccc(Br)c4)ncnc3[nH]2)c(Cl)c1', '> 300 µM');

Prompt line: I have this molecule here, Nc1nc(Nc2cccc(C(F)(F)F)c2)c2cc(Cc3ccc(Cl)cc3Cl)[nH]c2n1 , and I need its recorded IC50.
Response line: > 300 µM

Prompt line: Fill blank: measured IC50 of the molecule COc1ccc(OC)c(Cc2cc3c(Nc4cccc(Br)c4)ncnc3[nH]2)c1 is ____.
Response line: > 300 µM

Prompt line: What does the data say about its IC50? Entry: CC(C)c1ccccc1Nc1nc(N)nc2[nH]c(Cc3ccc(Cl)cc3Cl)cc12
Response line: > 300 µM
